# PROTOCOL: DUX4 transcriptional activity inhibition in cells – 293T cells, Gaussia and Italica luciferase, primary screen (AID 1224904)
# STUDY_CONDITIONS: 293T-iDUX4 ZSCAN4-Gaussia luciferase reporter, 24 h; measured here: selective DUX4 reporter inhibition; stronger effect = lower value; concentration not given here
About 290 (0.78%) of roughly 37,000 compounds were called active. About 10% were inconclusive and are not listed. Only a selection was taken, and actives are over-represented in it overall.
READOUT_TYPE: Gaussia minus Italica difference (%)
Give the quantity in %, number only.

[[record]]
smiles_data = "CCCNC(=O)N1[C@H](CO)[C@@H]2c3ccccc3N(C(=O)C3CCOCC3)C[C@@H]21"
readout_type = "Gaussia minus Italica difference"
observed = -1.27

[[record]]
smiles_data = "COc1ccccc1C#Cc1ccc([C@@H]2[C@@H](CO)N3CCCCN(S(C)(=O)=O)C[C@@H]23)cc1"
readout_type = "Gaussia minus Italica difference"
observed = -6.73

[[record]]
smiles_data = "CC(C)[C@@H]1COCc2cnnn2CCC[C@H](C)C(=O)N1"
readout_type = "Gaussia minus Italica difference"
observed = -0.347

[[record]]
smiles_data = "O=C(Nc1cccc(F)c1)N1CC(=O)N2[C@H](CO)[C@H](c3ccc(C#CC4CC4)cc3)[C@@H]2C1"
readout_type = "Gaussia minus Italica difference"
observed = 14.6

[[record]]
smiles_data = "C[C@@H](O)C#Cc1ccc([C@@H]2[C@H](CO)N3CCCCN(S(=O)(=O)c4ccccc4)C[C@@H]23)cc1"
readout_type = "Gaussia minus Italica difference"
observed = 13.3


Need Gaussia minus Italica difference of COc1ccccc1C#Cc1ccc([C@H]2[C@H](CO)N3CCCCN(C(=O)C4CCC4)C[C@@H]23)cc1 , thanks. -27.4

How about C[C@@H](O)C#Cc1ccc([C@@H]2[C@H]3CN(S(=O)(=O)c4ccccc4)CCCCN3[C@H]2CO)cc1 ? 12.9

How about COc1cccc(CN2[C@H](CO)[C@@H]3c4ccccc4N(C(=O)c4ccncc4)C[C@@H]32)c1 ? -7.25
